target_or_system: human Nav1.5 (Homo sapiens (Human), UniProt Q14524)
Sequence (Q14524 whole entry): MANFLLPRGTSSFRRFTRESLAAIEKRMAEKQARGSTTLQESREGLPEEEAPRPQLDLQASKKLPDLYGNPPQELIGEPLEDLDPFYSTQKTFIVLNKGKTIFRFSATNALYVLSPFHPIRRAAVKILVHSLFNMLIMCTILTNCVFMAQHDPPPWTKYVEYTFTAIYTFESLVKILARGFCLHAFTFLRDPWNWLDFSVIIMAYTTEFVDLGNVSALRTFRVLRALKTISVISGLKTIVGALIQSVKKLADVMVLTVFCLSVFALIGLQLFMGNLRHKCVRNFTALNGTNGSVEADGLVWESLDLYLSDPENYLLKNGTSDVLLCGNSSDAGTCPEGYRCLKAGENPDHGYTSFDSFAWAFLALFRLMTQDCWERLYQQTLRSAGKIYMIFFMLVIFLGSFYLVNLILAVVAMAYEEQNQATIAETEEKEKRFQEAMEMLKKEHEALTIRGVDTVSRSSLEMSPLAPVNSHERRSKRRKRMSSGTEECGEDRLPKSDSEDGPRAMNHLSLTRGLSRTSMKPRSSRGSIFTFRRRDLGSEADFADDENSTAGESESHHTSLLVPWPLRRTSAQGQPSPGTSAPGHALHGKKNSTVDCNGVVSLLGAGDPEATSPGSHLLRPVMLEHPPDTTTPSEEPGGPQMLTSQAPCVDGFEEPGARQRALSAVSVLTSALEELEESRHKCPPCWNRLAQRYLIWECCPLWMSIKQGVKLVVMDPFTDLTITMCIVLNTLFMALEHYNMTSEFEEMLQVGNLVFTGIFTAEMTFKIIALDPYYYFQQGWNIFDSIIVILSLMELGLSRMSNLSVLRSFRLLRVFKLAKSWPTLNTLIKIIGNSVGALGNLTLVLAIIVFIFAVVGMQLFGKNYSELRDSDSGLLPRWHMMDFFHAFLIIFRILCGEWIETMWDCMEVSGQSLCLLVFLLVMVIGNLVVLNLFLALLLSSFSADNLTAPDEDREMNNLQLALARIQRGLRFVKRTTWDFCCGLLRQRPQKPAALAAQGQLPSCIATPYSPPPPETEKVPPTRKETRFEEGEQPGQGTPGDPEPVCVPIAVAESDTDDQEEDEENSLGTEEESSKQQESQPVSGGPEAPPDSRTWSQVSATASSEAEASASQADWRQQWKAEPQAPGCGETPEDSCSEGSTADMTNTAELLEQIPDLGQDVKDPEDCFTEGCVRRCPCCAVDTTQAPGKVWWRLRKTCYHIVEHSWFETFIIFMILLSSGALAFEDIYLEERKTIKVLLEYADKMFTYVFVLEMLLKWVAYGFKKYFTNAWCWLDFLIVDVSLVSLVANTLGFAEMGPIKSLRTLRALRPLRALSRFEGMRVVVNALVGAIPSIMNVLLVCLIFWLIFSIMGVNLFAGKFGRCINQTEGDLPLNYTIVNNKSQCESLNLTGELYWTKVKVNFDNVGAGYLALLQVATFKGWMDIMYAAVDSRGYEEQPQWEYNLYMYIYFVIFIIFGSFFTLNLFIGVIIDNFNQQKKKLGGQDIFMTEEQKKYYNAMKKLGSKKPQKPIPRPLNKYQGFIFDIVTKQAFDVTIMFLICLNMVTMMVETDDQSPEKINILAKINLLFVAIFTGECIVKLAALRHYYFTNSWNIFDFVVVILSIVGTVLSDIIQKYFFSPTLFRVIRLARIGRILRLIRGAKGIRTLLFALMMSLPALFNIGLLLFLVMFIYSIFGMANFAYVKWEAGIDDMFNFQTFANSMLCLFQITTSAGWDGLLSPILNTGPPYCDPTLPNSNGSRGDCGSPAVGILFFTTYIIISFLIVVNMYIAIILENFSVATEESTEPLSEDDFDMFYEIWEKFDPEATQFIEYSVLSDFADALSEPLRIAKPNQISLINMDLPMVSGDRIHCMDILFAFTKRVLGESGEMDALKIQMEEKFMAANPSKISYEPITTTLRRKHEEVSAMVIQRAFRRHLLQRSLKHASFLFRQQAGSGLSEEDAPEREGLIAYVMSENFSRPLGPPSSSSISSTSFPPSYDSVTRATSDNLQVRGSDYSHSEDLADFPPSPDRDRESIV
test_protocol: Human Nav1.5 inhibitory activity evaluation (automated patch clamp QPatch16X, HEK293 cells stably expressing human Nav1.5)
Format: cell-based
assay_conditions: HEK293 cells stably expressing human Nav1.5, automated patch clamp QPatch16X
attribute_measured: IC50

Examples with answers:
N#Cc1ccc2c(c1)C[C@@H](NC(=O)c1cc3n(n1)CCC(COCC(F)(F)F)O3)CO2 (single isomer, unassigned) [115 (isomer A)]; ≥ 3 µM
O=C(c1cn2c(n1)CNC(c1ccccc1)C2)N1CCC(c2cccc(C(F)(F)F)c2)C1 (stereo not shown); ≥ 3 µM
CCc1ccc2c(c1)C[C@@H](NC(=O)c1cc3n(n1)CCC(c1ccccc1F)O3)CO2 (stereo partly shown); ≥ 3 µM
CCCOCC1CCn2nc(C(=O)N[C@H]3COc4ccc(C#N)cc4C3)cc2O1 (single isomer, unassigned) [101 (isomer A)]; ≥ 3 µM
O=C(N[C@H]1COc2ccccc2C1)c1cn2c(n1)CCC(COc1ccccc1)C2 (stereo partly shown); 1 to 3 µM
CCC1CCc2nc(C(=O)N[C@H]3COc4ccccc4C3)cn2C1 (stereo partly shown); ≥ 3 µM

Would you mind telling me what IC50 value was observed for O=C(N[C@H]1COc2ccccc2C1)c1cn2c(n1)CNC(c1cccc(C(F)(F)F)n1)C2 (stereo partly shown) ?
1 to 3 µM
